Origin of the recorded values: ChEMBL document CHEMBL1135517

# MEASURED ON: Adenosine receptor A2a (Homo sapiens, UniProt P29274)
# Sequence (P29274 whole entry): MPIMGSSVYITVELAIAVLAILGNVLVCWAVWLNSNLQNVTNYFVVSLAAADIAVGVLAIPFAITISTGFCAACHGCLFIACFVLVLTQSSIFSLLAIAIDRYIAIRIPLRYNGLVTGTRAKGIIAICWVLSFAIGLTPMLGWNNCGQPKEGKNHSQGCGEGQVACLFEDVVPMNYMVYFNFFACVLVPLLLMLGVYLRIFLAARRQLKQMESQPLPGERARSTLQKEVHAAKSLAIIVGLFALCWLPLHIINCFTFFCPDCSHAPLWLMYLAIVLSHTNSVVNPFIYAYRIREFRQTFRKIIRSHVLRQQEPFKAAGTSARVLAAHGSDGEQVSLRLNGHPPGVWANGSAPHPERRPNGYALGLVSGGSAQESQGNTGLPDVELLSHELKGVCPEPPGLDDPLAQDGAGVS
# PROTOCOL DESCRIPTION: Binding affinity against Human recombinant Adenosine A2A receptor stably transfected in CHO cells using [3H]NECA as radioligand
QUANTITY KIND: Ki (nM)

# example entries with known answers
In [3]: df
Out[3]:
                                   molecule  reading_unit  readout_number
0  CNc1nc(C#Cc2ccccc2)nc2c1ncn2[C@@H]1O[C@H](CO)[C@@H](O)[C@H]1O            nM            8530
1  CCNc1nc(C#CC(O)c2ccccc2)nc2c1ncn2[C@@H]1O[C@H](CO)[C@@H](O)[C@H]1O (stereo partly drawn)            nM              94
2  CCNC(=O)[C@H]1O[C@@H](n2cnc3c(N)nc(C#Cc4ccccc4)nc32)[C@H](O)[C@@H]1O            nM             620
3  CCNc1nc(C#Cc2ccccc2)nc2c1ncn2C1O[C@H](CO)[C@@H](O)[C@H]1O (stereo partly drawn)            nM            4450
4  Nc1nc(C#C[C@H](O)c2ccccc2)nc2c1ncn2[C@@H]1O[C@H](CO)[C@@H](O)[C@H]1O            nM              29

A = CCNc1nc(C#C[C@@H](O)c2ccccc2)nc2c1ncn2[C@@H]1O[C@H](CO)[C@@H](O)[C@H]1O
B = CCNC(=O)[C@H]1O[C@@H](n2cnc3c(N)nc(C#C[C@H](O)c4ccccc4)nc32)[C@H](O)[C@@H]1O
# input Please indicate which entry, A or B , has the lower recorded Ki value. Please identify the chosen entry by its label.
# output B

---

# MEASURED ON: Adenosine receptor A3 (Homo sapiens, UniProt P0DMS8)
# Sequence (P0DMS8 whole entry): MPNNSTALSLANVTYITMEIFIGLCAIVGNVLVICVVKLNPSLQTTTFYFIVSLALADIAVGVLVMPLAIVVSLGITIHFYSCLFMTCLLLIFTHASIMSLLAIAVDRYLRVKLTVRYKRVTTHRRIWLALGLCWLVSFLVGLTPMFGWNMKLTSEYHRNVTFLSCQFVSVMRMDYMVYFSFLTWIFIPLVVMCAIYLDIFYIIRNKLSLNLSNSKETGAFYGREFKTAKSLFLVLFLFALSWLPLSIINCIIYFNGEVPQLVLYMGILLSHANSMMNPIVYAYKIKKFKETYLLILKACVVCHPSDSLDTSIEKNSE
# PROTOCOL DESCRIPTION: Binding affinity against Human recombinant Adenosine A3 receptor stably transfected in CHO cells using [3H]NECA as radioligand
# Type: cell-based
pKi: −log10 of the molar value.
QUANTITY KIND: pKi

# example entries with known answers
>>> print(df.to_string())
                                   molecule                               measured_on  quantity_kind  readout_number
0  Nc1nc(C#Cc2ccccc2)nc2c1ncn2[C@@H]1O[C@H](CO)[C@@H](O)[C@H]1O  Adenosine receptor A3 (Homo sapiens, UniProt P0DMS8)            pKi            7.80
1  CCNc1nc(C#CC(O)c2ccccc2)nc2c1ncn2[C@@H]1O[C@H](CO)[C@@H](O)[C@H]1O (stereo partly drawn)  Adenosine receptor A3 (Homo sapiens, UniProt P0DMS8)            pKi            9.01
2  CCCCC#Cc1nc(NCC)c2ncn([C@@H]3O[C@H](CO)[C@@H](O)[C@H]3O)c2n1  Adenosine receptor A3 (Homo sapiens, UniProt P0DMS8)            pKi            8.64
3  CCNC(=O)[C@H]1O[C@@H](n2cnc3c(N)nc(C#CC(O)c4ccccc4)nc32)[C@H](O)[C@@H]1O (mixture of isomers)  Adenosine receptor A3 (Homo sapiens, UniProt P0DMS8)            pKi            9.38
4  Nc1nc(C#CC(O)c2ccccc2)nc2c1ncn2[C@@H]1O[C@H](CO)[C@@H](O)[C@H]1O (stereo partly drawn)  Adenosine receptor A3 (Homo sapiens, UniProt P0DMS8)            pKi            8.48

P = CCCCC#Cc1nc(NC)c2ncn([C@@H]3O[C@H](CO)[C@@H](O)[C@H]3O)c2n1
Q = CCCCC#Cc1nc(N)c2ncn([C@@H]3O[C@H](CO)[C@@H](O)[C@H]3O)c2n1
# input Pick the one with the larger pKi: P vs Q Please identify the chosen entry by its label.
# output P

---

# MEASURED ON: UniProt:P29275
# PROTOCOL DESCRIPTION: Receptor-stimulated activity in CHO cells stably transfected with Human recombinant Adenosine A2B receptor measuring adenylyl cyclase activity
QUANTITY KIND: EC50 (µM)

# example entries with known answers
>>> print(df.to_string())
                                   compound  quantity_kind  readout_number
0  CNc1nc(C#Cc2ccccc2)nc2c1ncn2[C@@H]1O[C@H](CO)[C@@H](O)[C@H]1O           EC50             100
1  CNc1nc(C#CC(O)c2ccccc2)nc2c1ncn2[C@@H]1O[C@H](CO)[C@@H](O)[C@H]1O (stereo partly drawn)           EC50             2.7
2  CCCCC#Cc1nc(NC(C)C)c2ncn([C@@H]3O[C@H](CO)[C@@H](O)[C@H]3O)c2n1           EC50             100

I = CCNC(=O)[C@H]1O[C@@H](n2cnc3c(N)nc(C#C[C@@H](O)c4ccccc4)nc32)[C@H](O)[C@@H]1O
II = CCNC(=O)[C@H]1O[C@@H](n2cnc3c(N)nc(C#CC(O)c4ccccc4)nc32)[C@H](O)[C@@H]1O (mixture of isomers)
# input Pick the one with the larger EC50: I vs II Please identify the chosen entry by its label.
# output II
(II: 1.1 µM, I: 0.22 µM)

---

# MEASURED ON: Adenosine receptor A2a (Homo sapiens)
# PROTOCOL DESCRIPTION: Binding affinity against Human recombinant Adenosine A2A receptor stably transfected in CHO cells using [3H]NECA as radioligand
QUANTITY KIND: Ki (nM)

# example entries with known answers
>>> print(df.to_string())
                                     smiles  quantity_kind  readout_number
0  CC(C)Nc1nc(C#Cc2ccccc2)nc2c1ncn2[C@@H]1O[C@H](CO)[C@@H](O)[C@H]1O             Ki            1100
1  CCCCC#Cc1nc(NC)c2ncn([C@@H]3O[C@H](CO)[C@@H](O)[C@H]3O)c2n1             Ki            1230

a = CCNC(=O)[C@H]1O[C@@H](n2cnc3c(N)nc(C#C[C@@H](O)c4ccccc4)nc32)[C@H](O)[C@@H]1O
b = CC(C)Nc1nc(C#C[C@H](O)c2ccccc2)nc2c1ncn2[C@@H]1O[C@H](CO)[C@@H](O)[C@H]1O
# input Please indicate which entry, a or b , has the lower recorded Ki value. Please identify the chosen entry by its label.
# output a

---

pEC50 listing for selected molecules.
# MEASURED ON: Adenosine receptor A2b (Homo sapiens, UniProt P29275)
# Sequence (P29275 whole entry): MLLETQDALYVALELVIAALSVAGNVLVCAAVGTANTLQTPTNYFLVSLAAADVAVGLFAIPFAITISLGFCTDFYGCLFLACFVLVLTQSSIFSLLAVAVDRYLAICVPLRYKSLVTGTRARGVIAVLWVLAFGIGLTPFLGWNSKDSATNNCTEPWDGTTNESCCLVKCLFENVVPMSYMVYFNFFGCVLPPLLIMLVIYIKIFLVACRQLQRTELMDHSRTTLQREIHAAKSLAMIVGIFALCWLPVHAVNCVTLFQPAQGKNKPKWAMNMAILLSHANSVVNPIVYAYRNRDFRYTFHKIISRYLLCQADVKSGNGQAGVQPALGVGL
# PROTOCOL DESCRIPTION: Receptor-stimulated activity in CHO cells stably transfected with Human recombinant Adenosine A2B receptor measuring adenylyl cyclase activity
pEC50: −log10 of the molar value.

# example entries with known answers
>>> print(df.to_string())
                                   molecule  quantity_kind  result
0  CC(C)Nc1nc(C#Cc2ccccc2)nc2c1ncn2[C@@H]1O[C@H](CO)[C@@H](O)[C@H]1O          pEC50  < 4.00
1  CCNc1nc(C#Cc2ccccc2)nc2c1ncn2C1O[C@H](CO)[C@@H](O)[C@H]1O (stereo partly drawn)          pEC50  < 4.00

Below: the item to evaluate.
Memo: `Nc1nc(C#Cc2ccccc2)nc2c1ncn2[C@@H]1O[C@H](CO)[C@@H](O)[C@H]1O` , reported pEC50: < 4.00
